Test system: THP-1
measurementProtocol: Cytotoxicity against human THP1 cells at 40 uM after 24 hrs by flow cytometry
Format: cell-based
experimentalSetup: thp-1, 24 h
measuredEndpoint: Activity

[[record]]
structuresmilesstring = "O=C(/C=C/c1cccc2ccccc12)c1ccccc1O"
measuredendpoint = "Activity"
measured = "2%"

[[record]]
structuresmilesstring = "COc1cc(C(=O)/C=C/c2ccc3ccccc3c2)ccc1O"
measuredendpoint = "Activity"
measured = "10.5%"

[[record]]
structuresmilesstring = "COc1ccc(OC)c(C(=O)/C=C/c2ccc3ccccc3c2)c1"
measuredendpoint = "Activity"
measured = "83.1%"

[[record]]
structuresmilesstring = "COc1ccc(OC)c(C(=O)/C=C/c2cccc3ccccc23)c1"
measuredendpoint = "Activity"
measured = "77.8%"

[[record]]
structuresmilesstring = "COc1ccc(C(=O)/C=C/c2ccc3ccccc3c2)cc1OC"
measuredendpoint = "Activity"
measured = "1.6%"


* * *

targetSystem: UniProt:P9WIA1
Sequence (P9WIA1 whole entry): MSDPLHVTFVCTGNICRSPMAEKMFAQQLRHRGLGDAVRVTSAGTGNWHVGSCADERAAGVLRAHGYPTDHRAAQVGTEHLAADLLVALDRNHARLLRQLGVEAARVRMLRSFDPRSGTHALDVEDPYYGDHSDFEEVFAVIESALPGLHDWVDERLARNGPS
measuredEndpoint: IC50 (µM)

[[record]]
structuresmilesstring = "COc1cc(C(=O)/C=C/c2ccc3ccccc3c2)ccc1O"
measuredendpoint = "IC50"
measured = 53.7


* * *

So I've got pIC50 readings for Tyrosine-protein phosphatase non-receptor type 1 (Homo sapiens), take a look.
pIC50: −log10 of the molar value.
measuredEndpoint: pIC50

[[record]]
structuresmilesstring = "COc1cc(C(=O)/C=C/c2ccc3ccccc3c2)ccc1O"
measuredendpoint = "pIC50"
measured = 3.91

[[record]]
structuresmilesstring = "COc1ccc(C(=O)/C=C/c2ccc3ccccc3c2)cc1OC"
measuredendpoint = "pIC50"
measured = 2.90

[[record]]
structuresmilesstring = "O=C(/C=C/c1cccc2ccccc12)c1ccccc1O"
measuredendpoint = "pIC50"
measured = 3.80

[[record]]
structuresmilesstring = "COc1ccc(OC)c(C(=O)/C=C/c2cccc3ccccc23)c1"
measuredendpoint = "pIC50"
measured = 3.67

[[record]]
structuresmilesstring = "COc1ccc(OC)c(C(=O)/C=C/c2ccc3ccccc3c2)c1"
measuredendpoint = "pIC50"
measured = 3.84


* * *

# Ki values compiled below
targetSystem: Low molecular weight protein-tyrosine phosphatase A (Mycobacterium tuberculosis, UniProt P9WIA1)
Sequence (P9WIA1 whole entry): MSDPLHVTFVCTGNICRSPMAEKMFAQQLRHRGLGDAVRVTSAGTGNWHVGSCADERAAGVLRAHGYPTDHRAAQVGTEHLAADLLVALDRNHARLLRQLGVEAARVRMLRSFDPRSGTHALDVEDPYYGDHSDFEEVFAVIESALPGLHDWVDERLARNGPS
measuredEndpoint: Ki

[[record]]
structuresmilesstring = "COc1cc(C(=O)/C=C/c2ccc3ccccc3c2)ccc1O"
measuredendpoint = "Ki"
measured = "17.9 µM"

[[record]]
structuresmilesstring = "COc1ccc(OC)c(C(=O)/C=C/c2ccc3ccccc3c2)c1"
measuredendpoint = "Ki"
measured = "5.4 µM"

[[record]]
structuresmilesstring = "O=C(/C=C/c1cccc2ccccc12)c1ccccc1O"
measuredendpoint = "Ki"
measured = "9.1 µM"

[[record]]
structuresmilesstring = "COc1ccc(OC)c(C(=O)/C=C/c2cccc3ccccc23)c1"
measuredendpoint = "Ki"
measured = "21.3 µM"

[[record]]
structuresmilesstring = "COc1ccc(C(=O)/C=C/c2ccc3ccccc3c2)cc1OC"
measuredendpoint = "Ki"
measured = "4.9 µM"

